parameter: melting point

compound	result
CCc1cc(SCc2cccc3sc(-c4ccc(C(F)(F)F)cc4)nc23)ccc1OCC(=O)O	89 to 92 °C
Cc1cc(SCc2ccc3nc(-c4ccc(C(F)(F)F)cc4)sc3c2)ccc1CCC(=O)O	194 to 196 °C
Cc1cc(SCc2ccc3nc(-c4ccc(C(F)(F)F)cc4)sc3c2)ccc1OCC(=O)O	176 to 177 °C
Cc1cc(OCc2ccc3nc(-c4ccc(C(F)(F)F)cc4)sc3c2)ccc1CCC(=O)O	198 to 200 °C
O=C(O)Cc1csc2cc(SCc3cccc4sc(-c5ccc(C(F)(F)F)cc5)nc34)ccc12	168 to 170 °C
Cc1cc(OC(C)c2cccc3nc(-c4ccc(C(F)(F)F)cc4)oc23)ccc1CCC(=O)O (racemic)	142 to 144 °C

Documented melting point of O=C(O)Cc1cccc(SCc2ccnc3oc(-c4ccc(C(F)(F)F)cc4)nc23)c1 : 164 to 166 °C

Documented melting point of Cc1cc(SC(C)(C)c2cccc3nc(-c4ccc(C(F)(F)F)cc4)oc23)ccc1CCC(=O)O : 104 to 107 °C

Documented melting point of Cc1cc(SCc2cccc3oc(-c4ccc(C(F)(F)F)cc4)nc23)ccc1OCC(=O)O : 160 to 162 °C (dec.)

Documented melting point of CCc1cc(SC(C)c2cccc3nc(-c4ccc(C(F)(F)F)cc4)oc23)ccc1OCC(=O)O (racemic) : 172 to 175 °C

Documented melting point of CCc1cc(SCc2ccnc3c2nc(-c2ccc(C(F)(F)F)cc2)n3C)ccc1OCC(=O)O : 118 to 120 °C

Documented melting point of CCc1cc(SCc2cccc3[nH]c(-c4ccc(C(F)(F)F)cc4)nc23)ccc1OCC(=O)O : 223 °C (dec.)

Documented melting point of CCc1cc(SCc2ccnc3oc(-c4ccc(C(F)(F)F)cc4)nc23)ccc1OCC(=O)O : 59 to 62 °C

Documented melting point of CCc1cc(SCc2ccnc3sc(-c4ccc(C(F)(F)F)cc4)nc23)ccc1OCC(=O)O : 176 to 178 °C

Documented melting point of Cc1cc(SCCc2ccc3sc(-c4ccc(C(F)(F)F)cc4)nc3c2)ccc1CCC(=O)O : 108 to 110 °C

Documented melting point of Cc1cc(SC(C)c2cccc3nc(-c4ccc(C(F)(F)F)cc4)oc23)ccc1OCC(=O)O (racemic) : 134 to 138 °C

Documented melting point of Cc1cc(SCc2cccc3c2nc(-c2ccc(C(F)(F)F)cc2)n3C)ccc1OCC(=O)O : 192 to 194 °C
